Quick list: viability, T/C per entry.
Test system: 677734-321-R-J1-PDC complex spheroid viability
Assay: Anticancer human tumor 677734-321-R-J1-PDC patient-derived soft tissue sarcoma cell line growth inhibition [POLQ]
Conditions: second compound 0.1 µM; first compound 1 µM; stronger effect = lower value
Write the answer as a number in %, unit excluded.

Reference set, count: 2
| MOLECULE | EXPERIMENTAL VALUE |
| --- | --- |
| COc1ccc([C@@H](O)c2cc(-c3ncnc4cc(N5CCOCC5)ccc34)c(F)cc2Cl)nn1 + Nc1ccc(C#CCN(C(=O)Cc2ncc(C(F)(F)F)cc2C(F)(F)F)c2ccc(F)cc2)nn1 | 90.8 |
| COc1cc2cc(C(=O)CCC(=O)O)sc2cc1OC + Nc1ccc(C#CCN(C(=O)Cc2ncc(C(F)(F)F)cc2C(F)(F)F)c2ccc(F)cc2)nn1 | 98.5 |

Q. viability, T/C of C=CC(=O)N1CCN(c2nc(=O)n(-c3c(C)ccnc3C(C)C)c3nc(-c4c(O)cccc4F)c(F)cc23)C(C)C1 (stereo not drawn) + Nc1ccc(C#CCN(C(=O)Cc2ncc(C(F)(F)F)cc2C(F)(F)F)c2ccc(F)cc2)nn1 on 677734-321-R-J1-PDC complex spheroid viability?
A. 118

* * *

Test system: 677734-321-R-J1-PDC complex spheroid viability
Experiment: Anticancer human tumor 677734-321-R-J1-PDC cell line growth inhibition [POLQ]; active means viability on the fitted dose curve at most 10% of control; inactive means the rest;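 further: spheroids exposed to compounds for one week; 100% = vehicle DMSO treated spheroids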
Conditions: second compound 0.316 µM; first compound 0.01 µM
Assign a class; possible classes are active, inactive

Example entries begin here.
| MOLECULE | TARGET OR TEST SYSTEM | CLASS LABEL |
| --- | --- | --- |
| CC[C@@]1(O)C(=O)OCc2c1cc1n(c2=O)Cc2cc3c(CN(C)C)c(O)ccc3nc2-1 + Cc1cccc(N(C)C(=O)C2C(O)CCN2c2nc(C)cc(C(F)(F)F)c2C#N)c1 | 677734-321-R-J1-PDC complex spheroid viability | inactive |
| C=CCn1c(=O)c2cnc(Nc3ccc(N4CCN(C)CC4)cc3)nc2n1-c1cccc(C(C)(C)O)n1 + Nc1ccc(C#CCN(C(=O)Cc2ncc(C(F)(F)F)cc2C(F)(F)F)c2ccc(F)cc2)nn1 | 677734-321-R-J1-PDC complex spheroid viability | inactive |
| COc1cccc(OCCCN)c1-c1cc(Nc2cnc(C#N)cn2)n[nH]1 + Cc1cccc(N(C)C(=O)C2C(O)CCN2c2nc(C)cc(C(F)(F)F)c2C#N)c1 | 677734-321-R-J1-PDC complex spheroid viability | active |

Q. How was COc1cccc(OCCCN)c1-c1cc(Nc2cnc(C#N)cn2)n[nH]1 + Nc1ccc(C#CCN(C(=O)Cc2ncc(C(F)(F)F)cc2C(F)(F)F)c2ccc(F)cc2)nn1 classified in this test?
A. inactive

Q. Also check Cn1ncnc1[C@H]1c2n[nH]c(=O)c3cc(F)cc(c23)N[C@@H]1c1ccc(F)cc1 + COC1C(OC(N)=O)C(O)C(Oc2ccc3c(O)c(NC(=O)c4ccc(O)c(CC=C(C)C)c4)c(=O)oc3c2C)OC1(C)C
A. inactive

* * *

System: 677734-321-R-J1-PDC complex spheroid viability
Assay: Anticancer human tumor 677734-321-R-J1-PDC cell line growth inhibition [POLQ];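 further: spheroids exposed to compounds for one week; 100% = vehicle DMSO treated spheroids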
Conditions: second compound 0.0316 µM; first compound 0.1 µM; stronger effect = lower value
Binary label based on viability, T/C with cut-off 90%: below gives criterion met, not below gives criterion not met.

| COMPOUND | CLASS LABEL |
| --- | --- |
| CCc1cc2c(N3CCc4c(cc(Cn5ccnc5)cc4-c4cn(C)nc4C(F)(F)F)C3=O)ccnc2c(OC)n1 + Nc1ccc(C#CCN(C(=O)Cc2ncc(C(F)(F)F)cc2C(F)(F)F)c2ccc(F)cc2)nn1 | criterion not met |
| COc1ccc([C@@H](O)c2cc(-c3ncnc4cc(N5CCOCC5)ccc34)c(F)cc2Cl)nn1 + COC1C(OC(N)=O)C(O)C(Oc2ccc3c(O)c(NC(=O)c4ccc(O)c(CC=C(C)C)c4)c(=O)oc3c2C)OC1(C)C | criterion not met |
| CC[C@@]1(O)C(=O)OCc2c1cc1n(c2=O)Cc2cc3c(CN(C)C)c(O)ccc3nc2-1 + COC1C(OC(N)=O)C(O)C(Oc2ccc3c(O)c(NC(=O)c4ccc(O)c(CC=C(C)C)c4)c(=O)oc3c2C)OC1(C)C | criterion met |
| Nc1ccn(C2OC(CO)C(O)C2(F)F)c(=O)n1 (stereo not given) + Nc1ccc(C#CCN(C(=O)Cc2ncc(C(F)(F)F)cc2C(F)(F)F)c2ccc(F)cc2)nn1 | criterion met |

Q. Below 90% on viability, T/C? Entry COc1cc(C2c3cc4c(cc3C(OC3OC5COC(C)OC5C(O)C3O)C3COC(=O)C23)OCO4)cc(OC)c1O (stereo not given) + Nc1ccc(C#CCN(C(=O)Cc2ncc(C(F)(F)F)cc2C(F)(F)F)c2ccc(F)cc2)nn1
A. criterion not met

* * *

Tested on: 677734-321-R-J1-PDC complex spheroid viability
Assay: Anticancer human tumor 677734-321-R-J1-PDC cell line growth inhibition [POLQ]; active = viability on the fitted dose curve at most 10% of control; inactive = the rest;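 further: spheroids exposed to compounds for one week; 100% = vehicle DMSO treated spheroids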
Settings: second compound 3.16 µM; first compound 10 µM
Result category, one only: active, inactive

| MOLECULE | CLASS LABEL |
| --- | --- |
| COc1ccc([C@@H](O)c2cc(-c3ncnc4cc(N5CCOCC5)ccc34)c(F)cc2Cl)nn1 + COC1C(OC(N)=O)C(O)C(Oc2ccc3c(O)c(NC(=O)c4ccc(O)c(CC=C(C)C)c4)c(=O)oc3c2C)OC1(C)C | inactive |
| C=CC(=O)N1CCN(c2nc(=O)n(-c3c(C)ccnc3C(C)C)c3nc(-c4c(O)cccc4F)c(F)cc23)C(C)C1 (stereo unspecified) + Nc1ccc(C#CCN(C(=O)Cc2ncc(C(F)(F)F)cc2C(F)(F)F)c2ccc(F)cc2)nn1 | inactive |
| C=CC(=O)N1CCN(c2nc(=O)n(-c3c(C)ccnc3C(C)C)c3nc(-c4c(O)cccc4F)c(F)cc23)C(C)C1 (stereo unspecified) + COC1C(OC(N)=O)C(O)C(Oc2ccc3c(O)c(NC(=O)c4ccc(O)c(CC=C(C)C)c4)c(=O)oc3c2C)OC1(C)C | inactive |

Q. I would be grateful if you could indicate the recorded call for COc1ccc([C@@H](O)c2cc(-c3ncnc4cc(N5CCOCC5)ccc34)c(F)cc2Cl)nn1 + Cc1cccc(N(C)C(=O)C2C(O)CCN2c2nc(C)cc(C(F)(F)F)c2C#N)c1 .
A. inactive

Q. What do we get for COc1cccc2c1C(=O)c1c(O)c3c(c(O)c1C2=O)CC(O)(C(=O)CO)CC3OC1CC(N)C(O)C(C)O1 (stereo unspecified) + Cc1cccc(N(C)C(=O)C2C(O)CCN2c2nc(C)cc(C(F)(F)F)c2C#N)c1 ?
A. active

Q. Likewise for CCc1cc2c(N3CCc4c(cc(Cn5ccnc5)cc4-c4cn(C)nc4C(F)(F)F)C3=O)cc(C)nc2c(OC)n1 + Cc1cccc(N(C)C(=O)C2C(O)CCN2c2nc(C)cc(C(F)(F)F)c2C#N)c1 ?
A. inactive

Q. Param item: O=c1[nH]cc(F)c(=O)[nH]1 + Nc1ccc(C#CCN(C(=O)Cc2ncc(C(F)(F)F)cc2C(F)(F)F)c2ccc(F)cc2)nn1
A. inactive

Q. Now consider COc1cccc2c1C(=O)c1c(O)c3c(c(O)c1C2=O)CC(O)(C(=O)CO)CC3OC1CC(N)C(O)C(C)O1 (stereo unspecified) + Nc1ccc(C#CCN(C(=O)Cc2ncc(C(F)(F)F)cc2C(F)(F)F)c2ccc(F)cc2)nn1 .
A. active

Q. // query: O=C(Nc1ccc(O)c(NS(=O)(=O)c2ccc(F)cc2)c1)c1ccc(-c2ccccc2)cc1 + Cc1cccc(N(C)C(=O)C2C(O)CCN2c2nc(C)cc(C(F)(F)F)c2C#N)c1
A. inactive

Q. Then this molecule: COc1cc2cc(C(=O)CCC(=O)O)sc2cc1OC + Cc1cccc(N(C)C(=O)C2C(O)CCN2c2nc(C)cc(C(F)(F)F)c2C#N)c1
A. inactive

Q. O=c1[nH]cc(F)c(=O)[nH]1 + COC1C(OC(N)=O)C(O)C(Oc2ccc3c(O)c(NC(=O)c4ccc(O)c(CC=C(C)C)c4)c(=O)oc3c2C)OC1(C)C ?
A. inactive

Q. Same read-out for CCc1cc2c(N3CCc4c(cc(Cn5ccnc5)cc4-c4cn(C)nc4C(F)(F)F)C3=O)cc(C)nc2c(OC)n1 + COC1C(OC(N)=O)C(O)C(Oc2ccc3c(O)c(NC(=O)c4ccc(O)c(CC=C(C)C)c4)c(=O)oc3c2C)OC1(C)C ?
A. inactive

Q. Again, but for CNCc1ccc(-c2[nH]c3cc(F)cc4c3c2CCNC4=O)cc1 + Cc1cccc(N(C)C(=O)C2C(O)CCN2c2nc(C)cc(C(F)(F)F)c2C#N)c1
A. inactive

Q. Subsequent entry: CCc1cc2c(N3CCc4c(cc(Cn5ccnc5)cc4-c4cn(C)nc4C(F)(F)F)C3=O)ccnc2c(OC)n1 + Nc1ccc(C#CCN(C(=O)Cc2ncc(C(F)(F)F)cc2C(F)(F)F)c2ccc(F)cc2)nn1
A. inactive

Q. Also need CNCc1ccc(-c2[nH]c3cc(F)cc4c3c2CCNC4=O)cc1 + Nc1ccc(C#CCN(C(=O)Cc2ncc(C(F)(F)F)cc2C(F)(F)F)c2ccc(F)cc2)nn1 , thanks.
A. inactive

Q. And the next one, CC1COCCN1c1cc(C2(O)CC3CCC(C2)O3)c2cnn(-c3ccn[nH]3)c2n1 (stereo unspecified) + Cc1cccc(N(C)C(=O)C2C(O)CCN2c2nc(C)cc(C(F)(F)F)c2C#N)c1 ?
A. inactive

Q. Record: Nc1ccn(C2OC(CO)C(O)C2(F)F)c(=O)n1 (stereo unspecified) + Nc1ccc(C#CCN(C(=O)Cc2ncc(C(F)(F)F)cc2C(F)(F)F)c2ccc(F)cc2)nn1
A. inactive

Q. Okay, and C=CC(=O)N1CCN(c2nc(=O)n(-c3c(C)ccnc3C(C)C)c3nc(-c4c(O)cccc4F)c(F)cc23)C(C)C1 (stereo unspecified) + Cc1cccc(N(C)C(=O)C2C(O)CCN2c2nc(C)cc(C(F)(F)F)c2C#N)c1 ?
A. inactive

Q. Quick one: O=C(Nc1ccc(O)c(NS(=O)(=O)c2ccc(F)cc2)c1)c1ccc(-c2ccccc2)cc1 + COC1C(OC(N)=O)C(O)C(Oc2ccc3c(O)c(NC(=O)c4ccc(O)c(CC=C(C)C)c4)c(=O)oc3c2C)OC1(C)C
A. inactive

Q. What about this molecule? CCCS(=O)(=O)Nc1ccc(F)c(C(=O)c2c[nH]c3ncc(-c4ccc(Cl)cc4)cc23)c1F + Nc1ccc(C#CCN(C(=O)Cc2ncc(C(F)(F)F)cc2C(F)(F)F)c2ccc(F)cc2)nn1
A. active

Q. Let us now turn to CCc1cc2c(N3CCc4c(cc(Cn5ccnc5)cc4-c4cn(C)nc4C(F)(F)F)C3=O)ccnc2c(OC)n1 + COC1C(OC(N)=O)C(O)C(Oc2ccc3c(O)c(NC(=O)c4ccc(O)c(CC=C(C)C)c4)c(=O)oc3c2C)OC1(C)C
A. inactive
